Ref: PubChem BioAssay AID651814

Assayed target: DNA dC->dU-editing enzyme APOBEC-3F (Homo sapiens) (UniProt Q8IUX4)
Sequence (Q8IUX4 whole entry, looked up): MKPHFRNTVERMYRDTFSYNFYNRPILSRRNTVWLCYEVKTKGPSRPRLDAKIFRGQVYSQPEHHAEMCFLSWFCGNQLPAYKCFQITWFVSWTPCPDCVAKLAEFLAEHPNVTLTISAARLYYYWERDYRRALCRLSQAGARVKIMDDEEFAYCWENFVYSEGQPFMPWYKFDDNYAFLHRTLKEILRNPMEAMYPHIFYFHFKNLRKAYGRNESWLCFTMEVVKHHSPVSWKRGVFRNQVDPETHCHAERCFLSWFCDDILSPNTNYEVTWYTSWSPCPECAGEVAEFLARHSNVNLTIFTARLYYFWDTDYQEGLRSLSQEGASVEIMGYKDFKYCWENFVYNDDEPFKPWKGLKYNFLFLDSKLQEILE
Protocol: qHTS for inhibitors of Vif-A3F interactions: Cherry picks;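 further: % of control where 0% means no effect; active compounds raise eYFP fluorescence by blocking Vif-driven A3F loss; nearly all actives have a fitted effect of over 70% in size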
Reported conditions: HeLa A3F-eYFP + Vif, eYFP fluorescence, 24 h
In all, about 2,100 compounds went through this assay and about 590 (28%) were called active. Inconclusive results (about 42%) are left out. Some of the results follow.
Quantity measured: max response (%)

> print(dat)
                                    molecule  assay.value
 1   COc1ccc(NC(=O)/C(C#N)=C/C=C/c2ccco2)cc1          -30
 2  CSCC[C@H](NC(=O)[C@H](Cc1ccccc1)n1c(=O)[nH]c2ccccc2c1=O)C(=O)N1CCC[C@@H]1C(=O)O         1.14
 3  CC(=O)Nc1cccc(-c2ccnc3c2CC(C)(C(=O)Nc2cccc(C(C)=O)c2)O3)c1 (stereo not given)        -22.1
 4      COCCCN(C(C)=O)c1nc(-c2ccc(OC)cc2)cs1        -29.1
 5  COc1cc(C(=O)N/N=C/C2CC=CCC2)cc(OC)c1OC (stereo not given)        -15.3
 6        CSc1nc(N)c(C#N)c(-c2ccccc2Cl)c1C#N        -19.1
 7     Cc1noc(C)c1C(=O)OCC(=O)Nc1ccccc1SCC#N        -24.1
 8  CC(=O)Nc1ccc(S(=O)(=O)Nc2nc3ccccc3nc2Nc2ccc3ccccc3c2)cc1        0.168
 9         COc1cccc(Sc2ccccc2/C=N/NC(N)=O)c1        -25.5
10  Cc1ccc(C(=O)CCC(=O)OCC(=O)Nc2ccccc2SCC#N)cc1        -8.08

---

Assayed target: DNA dC->dU-editing enzyme APOBEC-3F (Homo sapiens) (UniProt Q8IUX4)
Protocol: qHTS for inhibitors of Vif-A3F interactions: Cherry picks;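 further: % of control where 0% means no effect; active compounds raise eYFP fluorescence by blocking Vif-driven A3F loss; nearly all actives have a fitted effect of over 70% in size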
Reported conditions: HeLa A3F-eYFP + Vif (tagged APOBEC3F with the HIV-1 protein that degrades it), eYFP fluorescence, 24 h
In all, about 2,100 compounds went through this assay and about 590 (28%) were called active. Another 42% or so got no clear call; they are omitted. This is one part of the list.
Quantity measured: max response (%)

> print(dat)
                                    molecule                            assayed.target  units.text  assay.value
 1  CCS(=O)(=O)c1nn2c(N)c(/C=C3/C=CC(=O)C(OC)=C3)c(=O)nc2s1  DNA dC->dU-editing enzyme APOBEC-3F (Homo sapiens) (UniProt Q8IUX4)           %           11
 2  O=C(N=c1ccn(-c2nc3ccccc3nc2NS(=O)(=O)c2ccccc2)cc1)c1cccs1  DNA dC->dU-editing enzyme APOBEC-3F (Homo sapiens) (UniProt Q8IUX4)           %        -18.4
 3   O=C1/C(=C/c2ccc(O)cc2)SC(=S)N1Cc1cccnc1  DNA dC->dU-editing enzyme APOBEC-3F (Homo sapiens) (UniProt Q8IUX4)           %        -10.2
 4           O=S(=O)(Nc1cccc2ncccc12)c1cccs1  DNA dC->dU-editing enzyme APOBEC-3F (Homo sapiens) (UniProt Q8IUX4)           %        -3.96
 5  O=C1/C(=C/c2ccc([N+](=O)[O-])cc2)Oc2cc(O)ccc21  DNA dC->dU-editing enzyme APOBEC-3F (Homo sapiens) (UniProt Q8IUX4)           %        -5.76
 6  COc1ccc(N2C(=O)NC3CC2(C)Oc2ccccc23)cc1OC (stereo not given)  DNA dC->dU-editing enzyme APOBEC-3F (Homo sapiens) (UniProt Q8IUX4)           %        -29.4
 7  CCOC(=O)N1CCC(Nc2nc3ccccc3nc2NS(=O)(=O)c2ccc(Cl)cc2)CC1  DNA dC->dU-editing enzyme APOBEC-3F (Homo sapiens) (UniProt Q8IUX4)           %        -1.97
 8  O=S(=O)(Nc1nc2ccccc2nc1N1CCN(c2ccccc2)CC1)c1ccc(F)cc1  DNA dC->dU-editing enzyme APOBEC-3F (Homo sapiens) (UniProt Q8IUX4)           %        -24.2
 9           S=C(NCCSCc1ccc(Cl)cc1)Nc1ccccc1  DNA dC->dU-editing enzyme APOBEC-3F (Homo sapiens) (UniProt Q8IUX4)           %       -0.773
10  CN1CCN(c2nc3ccccc3nc2NS(=O)(=O)c2ccc(Br)cc2)CC1  DNA dC->dU-editing enzyme APOBEC-3F (Homo sapiens) (UniProt Q8IUX4)           %        -2.09
